Assay: Pharmacokinetic properties in CD-1 mouse
Type: in vivo
Settings: both sexes, plasma, 3 mg/kg, intravenous injection, single administration, read-out: CL (clearance) (converted)
attribute measured: clearance (mL/min/kg)
Expressed in mL/min/kg, but write only the number.

Form field: reported clearance of CC#CC(=O)N1CCC[C@H]1c1nc(-c2ccc(Oc3ccccc3)cc2)c2c(N)nccn12 77

---

Test: Pharmacokinetic properties in CD-1 mouse
Type: in vivo
Conditions: both sexes, plasma, 15 mg/kg oral vs 3 mg/kg intravenous, read-out: F (bioavailability)
Experimental: Experiment animals: CD-1 mouse, males and females; body weight: 20-25 g; Route of administration: oral/intravenous. […] Sample collection: blood samples were collected at the following time points: 5 minutes, 15 minutes, 30 minutes, 1 hours, 2 hours, 4 hours, 8 hours and 24 hours after administration. […] Pharmacokinetic data analysis: the obtained plasma concentration data were fitted and calculated according to the non-compartmental model method using WinNolin. […]
attribute measured: bioavailability (%)
Expressed in %, but write only the number.

Form field: reported bioavailability of CC#CC(=O)N1CCC[C@H]1c1nc(-c2ccc(Oc3ccccc3)cc2)c2c(N)nccn12 56.4

---

Assay: Pharmacokinetic properties in CD-1 mouse
Format: in vivo
Conditions: both sexes, plasma, 3 mg/kg, intravenous injection, single administration, read-out: MRTINF (average residence time)
attribute measured: MRT inf (min)
Expressed in min, but write only the number.

Form field: reported MRT inf of CC#CC(=O)N1CCC[C@H]1c1nc(-c2ccc(Oc3ccccc3)cc2)c2c(N)nccn12 [Compound of formula Id] 17.8

---

Test: Pharmacokinetic properties in CD-1 mouse
Format: in vivo
Conditions: both sexes, plasma, 3 mg/kg, intravenous injection, single administration, read-out: Terminal t1/2 (half life) (converted)
attribute measured: half-life (min)
Expressed in min, but write only the number.

Form field: reported half-life of CC#CC(=O)N1CCC[C@H]1c1nc(-c2ccc(Oc3ccccc3)cc2)c2c(N)nccn12 17.2

---

Biological target: HER2 (Homo sapiens, UniProt P04626)
Sequence (P04626 23-1255): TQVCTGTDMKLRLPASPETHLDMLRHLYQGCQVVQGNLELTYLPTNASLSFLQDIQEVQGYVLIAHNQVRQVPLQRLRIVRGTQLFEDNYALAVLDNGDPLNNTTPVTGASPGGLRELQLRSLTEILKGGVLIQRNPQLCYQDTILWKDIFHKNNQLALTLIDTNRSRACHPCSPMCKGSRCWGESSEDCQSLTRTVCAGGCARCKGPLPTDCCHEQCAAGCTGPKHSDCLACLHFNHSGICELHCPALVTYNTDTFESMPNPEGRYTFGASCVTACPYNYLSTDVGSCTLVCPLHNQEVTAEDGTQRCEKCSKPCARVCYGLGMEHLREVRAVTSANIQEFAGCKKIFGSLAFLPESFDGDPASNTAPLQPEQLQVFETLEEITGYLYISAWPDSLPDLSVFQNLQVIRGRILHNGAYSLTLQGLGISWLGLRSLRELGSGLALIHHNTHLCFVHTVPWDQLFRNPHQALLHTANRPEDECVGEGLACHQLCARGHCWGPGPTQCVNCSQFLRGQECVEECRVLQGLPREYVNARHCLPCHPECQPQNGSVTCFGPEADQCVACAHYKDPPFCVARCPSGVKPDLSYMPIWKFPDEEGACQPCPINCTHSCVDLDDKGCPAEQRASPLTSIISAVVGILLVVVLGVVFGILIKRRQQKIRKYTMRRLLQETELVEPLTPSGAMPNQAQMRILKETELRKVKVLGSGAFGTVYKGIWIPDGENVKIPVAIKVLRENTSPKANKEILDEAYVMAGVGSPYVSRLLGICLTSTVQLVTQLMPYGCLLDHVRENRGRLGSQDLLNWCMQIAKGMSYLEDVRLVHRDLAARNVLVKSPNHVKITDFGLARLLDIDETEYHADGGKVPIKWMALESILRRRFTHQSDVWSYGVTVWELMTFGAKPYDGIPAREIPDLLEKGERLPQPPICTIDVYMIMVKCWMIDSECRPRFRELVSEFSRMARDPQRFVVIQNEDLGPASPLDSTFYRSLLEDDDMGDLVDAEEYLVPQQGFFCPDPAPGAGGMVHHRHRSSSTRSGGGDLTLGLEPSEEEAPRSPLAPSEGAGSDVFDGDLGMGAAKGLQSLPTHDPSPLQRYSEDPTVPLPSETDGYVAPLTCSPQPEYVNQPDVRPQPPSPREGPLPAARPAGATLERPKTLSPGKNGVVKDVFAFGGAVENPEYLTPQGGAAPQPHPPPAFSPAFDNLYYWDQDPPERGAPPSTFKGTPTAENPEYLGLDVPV
attribute measured: IC50

# get_value(readout= IC50, system= HER2 (Homo sapiens, UniProt P04626)) for CC#CC(=O)N1CCC[C@H]1c1nc(-c2ccc(Oc3ccccc3)cc2)c2c(N)nccn12 > 1 µM

---

A set of molecules tested on BTK (Homo sapiens), with measured IC50:

# given smiles, IC50
data = [
    ("CC#CC(=O)N1CCC[C@H]1c1nc(-c2ccc(NC(=O)c3ccccn3)cc2)c2c(N)nccn12", "415 nM"),
]

Form field: reported IC50 of CC#CC(=O)N1CCC[C@H]1c1nc(-c2ccc(Oc3ccccc3)cc2)c2c(N)nccn12 4.8 nM

---

Experiment: In vitro liver microsomal metabolism (human)
Assay type: in vitro ADME
Settings: human liver microsomes, calculated from elimination half life; read-out: intrinsic clearance (CLint)
attribute measured: CLint scaled (mL/min/kg)
Expressed in mL/min/kg, but write only the number.

Form field: reported CLint scaled of CC#CC(=O)N1CCC[C@H]1c1nc(-c2ccc(C(=O)Nc3ccccn3)cc2)c2c(N)nccn12 [Acalabrutinib, acalabrutinib, reference compound] 146

Form field: reported CLint scaled of CC#CC(=O)N1CCC[C@H]1c1nc(-c2ccc(Oc3ccccc3)cc2)c2c(N)nccn12 555

---

Target: ITK (Homo sapiens)
Sequence (Q08881 whole entry): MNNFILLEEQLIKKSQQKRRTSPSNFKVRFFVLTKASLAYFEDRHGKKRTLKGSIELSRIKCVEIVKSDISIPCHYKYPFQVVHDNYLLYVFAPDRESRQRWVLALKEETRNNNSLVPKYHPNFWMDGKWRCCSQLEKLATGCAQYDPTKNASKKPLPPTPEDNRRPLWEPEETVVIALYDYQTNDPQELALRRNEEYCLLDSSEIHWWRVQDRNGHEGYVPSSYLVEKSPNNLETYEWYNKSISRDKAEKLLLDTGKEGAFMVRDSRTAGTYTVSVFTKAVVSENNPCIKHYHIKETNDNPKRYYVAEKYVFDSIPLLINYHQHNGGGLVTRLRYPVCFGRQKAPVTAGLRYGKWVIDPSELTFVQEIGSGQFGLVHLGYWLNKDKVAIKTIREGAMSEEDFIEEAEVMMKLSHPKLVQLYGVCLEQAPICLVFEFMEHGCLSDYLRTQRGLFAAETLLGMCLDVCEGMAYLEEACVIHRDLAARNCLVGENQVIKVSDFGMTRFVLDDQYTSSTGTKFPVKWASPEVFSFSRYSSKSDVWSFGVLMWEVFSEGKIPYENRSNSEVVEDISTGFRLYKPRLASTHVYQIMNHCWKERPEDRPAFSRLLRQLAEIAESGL
attribute measured: IC50

Form field: reported IC50 of CC#CC(=O)N1CCC[C@H]1c1nc(-c2ccc(Oc3ccccc3)cc2)c2c(N)nccn12 [Compound of formula Id] > 1000 nM
